This collection of values is drawn from patent US20120277143A1.

Molecular target: T1, human IL4 (human, UniProt P05112 25-153, biotinylated in the SPR and competition assays (sites not given))
T1 construct: Peprotech #200-04, mature protein produced in E. coli; also called hIL4; Interleukin 4
T1 sequence: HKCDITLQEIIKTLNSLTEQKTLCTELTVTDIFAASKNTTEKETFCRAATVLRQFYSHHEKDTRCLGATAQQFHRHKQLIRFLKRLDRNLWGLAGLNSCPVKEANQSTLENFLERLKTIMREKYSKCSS
Experiment: SPR ProteOn, biotin-IL4 on neutravidin chip, 1:1 fit
// NB: equality with 0.0001 s⁻¹ counts as Not fulfilled; only koff strictly below is Fulfilled

C06_53E9 (designed binder, ankyrin repeat protein; His-tagged, IMAC-purified) DLGKELLEAASAGQDDEVHILMANGADVNASDKDGSTPLHLAAVYGHLEIVEVLLKYGADVNAEDMNGYTPLHLAAADGHLEIVEVLLKYGADVDAKDRTGWTPLHLAGEFGHLEIVEVLLKYGADVNAQDKFGKTAFDISIDNGNEDLAEILQKLN	Not fulfilled
C06_48F3 (designed binder, ankyrin repeat protein; His-tagged, IMAC-purified) DLGKKLLEAARAGQDDEVRILMANGADVNAFDDSGLTPLHLAADDGHLEIVEVLLKHGADVNAADRMGDTPLHLAAFVGHLEIVEVLLKYGADVNAVDLAGVTPLHVAAFYGHLEIVEVLLKYGADVNAQDKFGKTAFDISIDNGNEDLAEILQKLN	Not fulfilled
C06_44C12 (designed binder, ankyrin repeat protein; His-tagged, IMAC-purified) DLGKKLLEAASAGQDDEVHILMANGADVNALDDSGYTPLHLAAEDGHLEIVEVLLKHGADVNAADRMGDTPLHLAAFVGHLEIVEVLLKYGADVNAVDLAGVTPLHVAAFYGHLEIVEVLLKYGADVNAQDKFGKTAFDISIDNGNEDLAEILQKLN	Fulfilled
C06_50E5 (designed binder, ankyrin repeat protein; His-tagged, IMAC-purified) DLGKKLLEAARAGQDDEVRILMANGADANATDDWGDTLLHLAATDGHLEIVEVLLKNGADVNAIDAMGMTPLHLAAVYGYLEIVEVLLKNGADVNAMDFSGFTPLHLAAFSGHLEIVEVLLKYGADVNAQDKFGKTAFDISIDNGNEDLAEILQKLN	Not fulfilled
C06_53G6 (designed binder, ankyrin repeat protein; His-tagged, IMAC-purified) NLGKKLLEAARAGQDDEVRILMANGADVNATDDWGDTLLHLAATDGHLEIVEVLLKYGADVNANDAIGDTPLHLAALYGHLEIVEVLLKYGADVNATDLHGFTPLHLAAFWGHLEIVEVLLKHGADVNAQDKFGKTAFDISIDNGNEDLAEILQKLN	Fulfilled

Data request: Take the binder C06_43G2 (designed binder, ankyrin repeat protein; His-tagged, IMAC-purified) DLGKKLLEAARAGQDDEVRILMANGADVNAKDVTGETPLHLASWEGHLEIVEVLLKHGADVNAQDLFGITPLHLAAATDGHLEIVEVLLKNGADVNATDSNGFTPLHLAASYGHLEIVDVLLKNGADVNAHDFDGFTPLHLAASWGHLEIVEVLLKYGADVNAQDKFGKTAFDISIDNGNEDLAEILQKLN and say whether its koff is less than 0.0001 s⁻¹.
Data returned: Fulfilled

Data request: A record lists C06_54C2 (designed binder, ankyrin repeat protein; His-tagged, IMAC-purified) DLGKKLLEAARAGQDDEVRILMANGADVNATDDWGDTLLHLAATDGHLEIVEVLLKNGADVNAIDAMGMTPLHLAAVYGYLEIVEVLLKNGADVNAMDFSGFTPLHLTAFSGHLEIVEVLLKYGADVNAQDKFGKTAFDISIDNGNEDLAEILQKLN . Is its koff below 0.0001 s⁻¹?
Data returned: Not fulfilled
